- Target or system: FSHR (Homo sapiens)
- Construct: expressed in transfected cells; host or cells: CHO (Cho-FSHR-LUC-1-1-43)
- Sequence (P23945 18-695): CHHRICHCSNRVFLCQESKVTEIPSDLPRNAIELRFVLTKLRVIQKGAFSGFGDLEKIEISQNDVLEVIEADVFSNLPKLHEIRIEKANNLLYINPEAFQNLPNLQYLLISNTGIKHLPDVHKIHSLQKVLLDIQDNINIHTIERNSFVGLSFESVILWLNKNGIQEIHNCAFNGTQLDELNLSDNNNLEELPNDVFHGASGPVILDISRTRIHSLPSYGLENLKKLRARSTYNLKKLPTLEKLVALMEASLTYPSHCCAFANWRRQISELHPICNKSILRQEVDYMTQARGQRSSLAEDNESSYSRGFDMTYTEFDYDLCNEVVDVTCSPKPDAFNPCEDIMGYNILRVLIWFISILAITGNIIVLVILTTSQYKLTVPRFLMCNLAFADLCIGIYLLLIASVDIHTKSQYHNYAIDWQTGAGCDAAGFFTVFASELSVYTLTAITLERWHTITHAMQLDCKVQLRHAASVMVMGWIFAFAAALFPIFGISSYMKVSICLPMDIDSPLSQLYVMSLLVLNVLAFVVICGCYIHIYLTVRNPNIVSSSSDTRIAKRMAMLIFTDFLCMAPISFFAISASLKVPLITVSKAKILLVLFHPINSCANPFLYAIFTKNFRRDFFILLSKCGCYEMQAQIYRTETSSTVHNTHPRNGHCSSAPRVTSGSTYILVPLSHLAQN
- Sequence (P01215 25-116 partner): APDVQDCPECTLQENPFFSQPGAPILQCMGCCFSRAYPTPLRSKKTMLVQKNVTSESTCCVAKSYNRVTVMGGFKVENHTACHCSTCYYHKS
- Sequence (P01225 19-129 partner): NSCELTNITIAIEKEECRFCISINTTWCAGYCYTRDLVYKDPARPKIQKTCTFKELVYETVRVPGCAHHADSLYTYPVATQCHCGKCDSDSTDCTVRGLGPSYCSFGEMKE
- Method: EC50 of cyclic AMP production in CHO FSHR cells + EC20 FSH (Assay A)
- Assay type: cell-based
- Experimental context: CHO FSHR cells + EC20 FSH; Table 2; read-out: Assay A EC50 of cyclic AMP production
Quantity measured: EC50

Compound: COc1ccnc(N2CCN(c3ccc(C(=O)NCCCN4CCCC4=O)cc3NC(=O)c3coc(C4CC4)n3)CC2)c1 [Compound 530]
EC50: 1 to 10 µM

Compound: Cc1ccccc1N1CCN(c2ccc(C(=O)NCCN3C(=O)CCC3=O)cc2NC(=O)c2ccco2)CC1 [Compound 305]
EC50: < 0.1 µM

Compound: Cc1ccccc1N1CCN(c2ccc(C(=O)NCCNC3CCCC3)cc2NC(=O)c2ccco2)CC1 [Compound 389]
EC50: > 10 µM

Could you now look at the following compound, please?
Exercise: Record request: EC50 value, item Cc1ccccc1N1CCN(c2ccc(C(=O)NCc3ccccc3CN(C)C)cc2NC(=O)c2ccco2)CC1 [Compound 456]
Solution: 0.1 to 1 µM

Every entry's value here was drawn from patent US9938262B2.
